Answer each item with its documented pKd.
Target: GDP-bound KRAS wild-type protein (Homo sapiens, UniProt P01116)
Sequence (P01116 whole entry): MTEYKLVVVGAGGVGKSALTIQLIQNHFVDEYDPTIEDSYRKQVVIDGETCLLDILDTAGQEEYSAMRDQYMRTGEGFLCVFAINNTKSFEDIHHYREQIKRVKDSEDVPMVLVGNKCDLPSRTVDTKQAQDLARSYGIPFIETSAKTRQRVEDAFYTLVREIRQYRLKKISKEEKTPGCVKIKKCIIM
Test: Binding to KRAS by surface plasmon resonance (SPR), Single Cycle Kinetics
Settings: SPR Single Cycle Kinetics, GDP-bound KRAS wild-type protein, 1:1 binding model; read-out: KRAS KD
*1 amine or outer side, *2 acyl side, *3 side chain or, on linkers, in order; H or OH if unused. Where a SMILES comes first, the peptide text is derived from it. Bridges are numbered along the chain shown (N, C = ends). [ ]: non-standard residue; d: D form. The star is where a group is joined. hPhe(3-Cl-4-CF3) = N[C@@H](CCc1ccc(C(F)(F)F)c(Cl)c1)C(=O)O; X9 = CCCN([C@@H](Cc1ccc(F)cc1)C(=O)[*:2])[*:1]; NMeGly(cPent) = CN[C@H](C(=O)O)C1CCCC1; NMeD = CN[C@@H](CC(=O)O)C(=O)O; NMeL = CN[C@@H](CC(C)C)C(=O)O; Morpholide = C1CN(*)CCO1; Ac5c = NC1(C(=O)O)CCCC1; Sar = CNCC(=O)O
# reply with the number alone; pKd is -log10 of concentration in mol/L

Query: Form field: pKd recorded for CCO[C@@H]1C[C@H]2C(=O)NC3(CC(C)(C)C3)C(=O)N(C)[C@@H](C3CCCC3)C(=O)N(C)[C@H](C(=O)N(C)CC)CC(=O)N(C)[C@@H](CC(C)C)C(=O)N[C@@H]([C@@H](C)CC)C(=O)N(C)CC(=O)N(C)[C@H]3C/C=C\CCN(C3=O)[C@@H](Cc3ccc(C(F)F)cc3)C(=O)N(C)CC(=O)N[C@@H](CCc3ccc(Cl)c(Cl)c3)C(=O)N2C1 with GDP-bound KRAS wild-type protein (Homo sapiens, UniProt P01116) (enter value)
Reply: 9.42

Query: Form field: pKd recorded for CCCN1C(=O)CN(C)C(=O)CN(C)C(=O)[C@H]([C@@H](C)CC)NC(=O)[C@H](CC(C)C)N(C)C(=O)C[C@@H](C(=O)N2CCOCC2)N(C)C(=O)[C@H](C2CCCC2)N(C)C(=O)C2(CCCC2)NC(=O)[C@@H]2CCCN2C(=O)[C@H](CCc2ccc(C(F)(F)F)c(Cl)c2)NC(=O)CN(C)C(=O)[C@@H]1Cc1ccc(F)cc1 [PP0214] ([NMeL]I[Sar][Sar][X9][Sar][hPhe(3-Cl-4-CF3)]P[Ac5c][NMeGly(cPent)][NMeD]-Morpholide; lactam N-11) with GDP-bound KRAS wild-type protein (Homo sapiens, UniProt P01116) (enter value)
Reply: 9.89

Query: Form field: pKd recorded for CC[C@H](C)[C@@H]1NC(=O)[C@H](CC(C)C)N(C)C(=O)C[C@@H](C(=O)N2CCOCC2)N(C)C(=O)[C@H](C2CCCC2)N(C)C(=O)C2(CCCC2)NC(=O)[C@@H]2CC(F)(F)CN2C(=O)[C@H](CCc2cc(F)c(C(F)(F)F)c(F)c2)NC(=O)CN(C)C(=O)[C@H](Cc2ccc(C(F)(F)F)cc2)N2CCCCC[C@@H](C2=O)N(C)C(=O)CN(C)C1=O with GDP-bound KRAS wild-type protein (Homo sapiens, UniProt P01116) (enter value)
Reply: 8.96

---

Biological target: GDP-bound KRAS wild-type protein (Homo sapiens, UniProt P01116)
Assay: Binding to KRAS by surface plasmon resonance (SPR), Single Cycle Kinetics
Details: SPR Single Cycle Kinetics, GDP-bound KRAS wild-type protein, 1:1 binding model; read-out: KRAS KD
Where a SMILES comes first, the peptide text is derived from it. Bridges are numbered along the chain shown (N, C = ends). [ ]: non-standard residue; d: D form. The star is where a group is joined. hPhe(3-Cl-4-CF3) = N[C@@H](CCc1ccc(C(F)(F)F)c(Cl)c1)C(=O)O; NPrPhe(4-CF3) = CCCN[C@@H](Cc1ccc(C(F)(F)F)cc1)C(=O)O; NMeGly(cPent) = CN[C@H](C(=O)O)C1CCCC1; Pro(4,4-F2) = O=C(O)[C@@H]1CC(F)(F)CN1; Pro(4,4-Me2) = CC1(C)CN[C@H](C(=O)O)C1; NMeD = CN[C@@H](CC(=O)O)C(=O)O; NMeL = CN[C@@H](CC(C)C)C(=O)O; Morpholide = C1CN(*)CCO1; NMeA = CN[C@@H](C)C(=O)O; Ac5c = NC1(C(=O)O)CCCC1; Aze = O=C(O)[C@@H]1CCN1; NEtG = CCNCC(=O)O; Sar = CNCC(=O)O
Readout type: Kd (nM)
Field: numeric (nM). Do not append units.

Query: Form field: Kd recorded for CCCN1C(=O)[C@@H]2CCN2C(=O)[C@H](C)N(C)C(=O)[C@H]([C@@H](C)CC)NC(=O)[C@H](CC(C)C)N(C)C(=O)C[C@@H](C(=O)N2CCOCC2)N(C)C(=O)[C@H](C2CCCC2)N(C)C(=O)C2(CCCC2)NC(=O)[C@@H]2CC(C)(C)CN2C(=O)[C@H](CCc2ccc(C(F)(F)F)c(Cl)c2)NC(=O)CN(C)C(=O)[C@@H]1Cc1ccc(C(F)(F)F)cc1 [PP0454] ([NMeL]I[NMeA][Aze][NPrPhe(4-CF3)][Sar][hPhe(3-Cl-4-CF3)][Pro(4,4-Me2)][Ac5c][NMeGly(cPent)][NMeD]-Morpholide; lactam N-11) with GDP-bound KRAS wild-type protein (Homo sapiens, UniProt P01116) (enter value)
Reply: 0.073

Query: Form field: Kd recorded for CC[C@H](C)[C@@H]1NC(=O)[C@H](CC)N(C)C(=O)C[C@@H](C(=O)N2CCOCC2)N(C)C(=O)[C@H](C2CCCC2)N(C)C(=O)C2(CCCC2)NC(=O)[C@@H]2CCCN2C(=O)[C@H](CCc2cc(F)c(C(F)(F)F)c(F)c2)NC(=O)CN(C)C(=O)[C@H](Cc2ccc(C(F)(F)F)cc2)N2CCCCC[C@@H](C2=O)N(C)C(=O)CN(C)C1=O with GDP-bound KRAS wild-type protein (Homo sapiens, UniProt P01116) (enter value)
Reply: 2.8

Query: Form field: Kd recorded for CCCN1C(=O)CN(C)C(=O)CN(CC)C(=O)[C@H]([C@@H](C)CC)NC(=O)[C@H](CC(C)C)N(C)C(=O)C[C@@H](C(=O)N(C)C)NC(=O)[C@H](C2CCCC2)N(C)C(=O)C2(CCCC2)NC(=O)[C@@H]2CC(F)(F)CN2C(=O)[C@H](CCc2ccc(C(F)(F)F)c(Cl)c2)NC(=O)CN(C)C(=O)[C@@H]1Cc1ccc(C(F)(F)F)cc1 [PP0369] ([NMeL]I[NEtG][Sar][NPrPhe(4-CF3)][Sar][hPhe(3-Cl-4-CF3)][Pro(4,4-F2)][Ac5c][NMeGly(cPent)]D-NMe2; lactam N-11) with GDP-bound KRAS wild-type protein (Homo sapiens, UniProt P01116) (enter value)
Reply: 1.9

---

Answer each item with its documented pKd.
Target: GDP-bound KRAS wild-type protein (Homo sapiens, UniProt P01116)
Test: Binding to KRAS by surface plasmon resonance (SPR), Single Cycle Kinetics
Settings: SPR, Single Cycle Kinetics, GDP-bound KRAS wild-type protein; read-out: KRAS KD
# reply with the number alone; pKd is -log10 of concentration in mol/L

Query: Can you look up the measured pKd of CC[C@H](C)[C@@H]1NC(=O)[C@H](CC)N(C)C(=O)C[C@@H](C(=O)N(C)C)N(C)C(=O)[C@H](C2CCCC2)N(C)C(=O)C2(CCC2)NC(=O)[C@@H]2CCCCN2C(=O)[C@H](CCc2cc(F)c(C(F)(F)F)c(F)c2)NC(=O)CN(C)C(=O)[C@H](Cc2ccc(C(F)(F)F)cc2)N2CC/C=C\C[C@@H](C2=O)N(C)C(=O)CN(C)C1=O [PP1136] for me?
Reply: 9.85

Query: Can you look up the measured pKd of CCC[C@H]1C(=O)N[C@@H]([C@@H](C)CC)C(=O)N(C)CC(=O)N(C)[C@H]2C/C=C\CCN(C2=O)[C@@H](Cc2ccc(C(F)(F)F)cc2)C(=O)N(C)CC(=O)N[C@@H](CCc2ccc(C(F)(F)F)c(Cl)c2)C(=O)N2CC3(CC3)C[C@H]2C(=O)NC2(CC(C)(C)C2)C(=O)N(C)[C@@H]([C@@H](C)CC)C(=O)N(C)[C@H](C(=O)N(C)C)CC(=O)N1C [PP2983] for me?
Reply: 9.30

Query: Can you look up the measured pKd of CCOC[C@H]1C(=O)N[C@@H]([C@@H](C)CC)C(=O)N(C)CC(=O)N(C)[C@H]2C/C=C\CCN(C2=O)[C@@H](Cc2ccc(C)cc2)C(=O)N(C)CC(=O)N[C@@H](CCc2cc(F)c(C(F)(F)F)c(F)c2)C(=O)N2C[C@H](OCC)C[C@H]2C(=O)NC2(CC(C)(C)C2)C(=O)N(C)[C@@H](C2CCCC2)C(=O)N(C)[C@H](C(=O)N(C)CC)CC(=O)N1C [PP2404] for me?
Reply: 10.05

Query: Can you look up the measured pKd of CCC[C@H]1C(=O)N[C@@H]([C@@H](C)CC)C(=O)N(C)CC(=O)N(C)[C@H]2C/C=C\CCN(C2=O)[C@@H](CC2CCCCC2)C(=O)N(C)CC(=O)N[C@@H](CCc2ccc(C(F)(F)F)c(OC)c2)C(=O)N2C[C@@H](C)C[C@H]2C(=O)N(C)C2(CCC2)C(=O)N(C)[C@@H](C2CCCC2)C(=O)N(C)[C@H](C(=O)N(C)C)CC(=O)N1C [PP2370] for me?
Reply: 9.27

Query: Can you look up the measured pKd of CCOC[C@H]1C(=O)N[C@@H]([C@@H](C)CC)C(=O)N(C)CC(=O)N(C)[C@H]2C/C=C\CCN(C2=O)[C@@H](Cc2ccc(C)cc2)C(=O)N(C)CC(=O)N[C@@H](CCc2cc(F)c(C(F)(F)F)c(F)c2)C(=O)N2C[C@@H](C)C[C@H]2C(=O)NC2(CC(C)(C)C2)C(=O)N(C)[C@@H](C2CCCC2)C(=O)N(C)[C@H](C(=O)N(CC)CC)CC(=O)N1C [PP2407] for me?
Reply: 9.30

Query: Can you look up the measured pKd of CCC[C@H]1C(=O)N[C@@H](C(CC)CC)C(=O)N(C)CC(=O)N(C)[C@H]2C/C=C\CCN(C2=O)[C@@H](Cc2ccc(C)cc2)C(=O)N(C)CC(=O)N[C@@H](CCc2ccc(C(F)(F)F)c(Cl)c2)C(=O)N2C[C@H](OCC)C[C@H]2C(=O)NC2(CC(C)(C)C2)C(=O)N(C)[C@@H](CC(C)(C)C)C(=O)N(C)[C@H](C(=O)N(C)C)CC(=O)N1C [PP2207] for me?
Reply: 9.10

Query: Can you look up the measured pKd of CCO[C@@H]1C[C@H]2C(=O)NC3(CC(C)(C)C3)C(=O)N(C)[C@@H](C(CC)CC)C(=O)N(C)[C@H](C(=O)N(C)C)CC(=O)N(C)[C@@H](CC3CCC3)C(=O)N[C@@H]([C@@H](C)CC)C(=O)N(C)CC(=O)N(C)[C@H]3C/C=C\CCN(C3=O)[C@@H](Cc3ccc(C(F)(F)F)cc3)C(=O)N(C)CC(=O)N[C@@H](CCc3ccc(Cl)c(Cl)c3)C(=O)N2C1 [PP2180] for me?
Reply: 9.18

Query: Can you look up the measured pKd of CCC[C@H]1C(=O)N[C@@H](CC(C)C)C(=O)N(C2CC2)CC(=O)N(C)[C@H]2C/C=C\CCN(C2=O)[C@@H](Cc2ccc(C)cc2)C(=O)N(C)CC(=O)N[C@@H](CCc2ccc(C(F)(F)F)c(OC)c2)C(=O)N2C[C@H](OCC)C[C@H]2C(=O)NC2(CC(C)(C)C2)C(=O)N(C)[C@@H](C2CCCC2)C(=O)N(C)[C@H](C(=O)N(C)C)CC(=O)N1C [PP2510] for me?
Reply: 8.41

Query: Can you look up the measured pKd of CCO[C@@H]1C[C@H]2C(=O)NC3(CCC3)C(=O)N(C)[C@@H](C3CCCC3)C(=O)N(C)[C@H](C(=O)N3CCOCC3)CC(=O)N(C)[C@@H](CC(C)C)C(=O)N[C@@H]([C@@H](C)CC)C(=O)N(C)CC(=O)N(C)[C@H]3CCCCCN(C3=O)[C@@H](Cc3ccc(F)cc3Cl)C(=O)N(C)CC(=O)N[C@@H](CCc3cc(F)c(C(F)(F)F)c(F)c3)C(=O)N2C1 [PP0918] for me?
Reply: 9.40

Query: Can you look up the measured pKd of C=CCN1CC(=O)N(C)[C@H]2C/C=C\CCN(C2=O)[C@@H](Cc2ccc(C)cc2)C(=O)N(C)CC(=O)N[C@@H](CCc2ccc(C(F)(F)F)c(OC)c2)C(=O)N2C[C@H](OCC)C[C@H]2C(=O)NC2(CC(C)(C)C2)C(=O)N(C)[C@@H](C2CCCC2)C(=O)N(C)[C@H](C(=O)N(C)C)CC(=O)N(C)[C@@H](CCC)C(=O)N[C@@H]([C@@H](C)CC)C1=O [PP2098] for me?
Reply: 9.70

Query: Can you look up the measured pKd of CC[C@H](C)[C@@H]1NC(=O)[C@H](CC(F)F)N(C)C(=O)C[C@@H](C(=O)N(C)C)N(C)C(=O)[C@H](C2CCCC2)N(C)C(=O)C2(CC(C)(C)C2)NC(=O)[C@@H]2C[C@H](C)CN2C(=O)[C@H](CCc2ccc(C(F)(F)F)c(OC)c2)NC(=O)CN(C)C(=O)[C@H](Cc2ccc(C)cc2)N2CC/C=C\C[C@@H](C2=O)N(C)C(=O)CN(C)C1=O [PP1875] for me?
Reply: 10.08

All values here come from patent US20240158446A1.
